Target: Solute carrier family 2, facilitated glucose transporter member 1 (Homo sapiens) (UniProt P11166)
Sequence (P11166 whole entry): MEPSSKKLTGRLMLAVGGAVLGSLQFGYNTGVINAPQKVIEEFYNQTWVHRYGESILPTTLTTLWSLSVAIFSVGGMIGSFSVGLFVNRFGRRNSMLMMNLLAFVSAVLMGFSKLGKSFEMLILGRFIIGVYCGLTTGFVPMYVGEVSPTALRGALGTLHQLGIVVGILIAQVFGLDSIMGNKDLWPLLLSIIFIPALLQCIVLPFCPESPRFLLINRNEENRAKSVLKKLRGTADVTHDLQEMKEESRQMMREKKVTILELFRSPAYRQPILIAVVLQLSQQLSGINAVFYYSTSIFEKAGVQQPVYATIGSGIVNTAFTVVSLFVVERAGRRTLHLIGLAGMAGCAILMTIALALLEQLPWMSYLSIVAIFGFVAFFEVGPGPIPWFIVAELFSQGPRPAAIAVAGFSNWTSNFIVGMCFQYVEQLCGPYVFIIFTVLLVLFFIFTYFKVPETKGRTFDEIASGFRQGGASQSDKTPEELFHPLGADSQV
Experiment: ST_JUDE_LEISH: Cytotoxicity at 2uM final concentration against transgenic Leishmania Mexicana promastigotes LmGLUT1 that are glucose transport deficient and complemented with the human glucose transporter GLUT1. Activity is measured by DNA content using SYBR green in vitro
Format: functional
Record form. Attribute: inhibition. Fill in for each entry.
Give bare numbers, in %.

Examples from the recorded data:
molecule	inhibition / %
CC(=O)Nc1cccc(C(=O)Nc2cccc(-c3ccc(-c4nc5cc(C(F)(F)F)ccc5[nH]4)s3)c2)c1	0.34
c1ccc(Oc2ccc(Nc3ccnc4cc(-c5cccc(CN6CCOCC6)c5)ccc34)cc2)cc1	-0.77
COc1ccc2c(c1)S(=O)(=O)N=C(N1CCCC1c1ccc(Cl)c(Cl)c1)N2C (centres undefined)	-1.4
CCOC(=O)/C(=N\OC(C(=O)OC(C)(C)C)c1ccccc1)c1csc(NC(c2ccccc2)(c2ccccc2)c2ccccc2)n1 (centres undefined)	0.73
Nc1c2c(nc3ccccc13)C(=Cc1ccc(O)cc1)CCC2	5.91

Please state, for each entry, its recorded inhibition.
1. COc1ccc2cc(C(c3nnnn3CC3CCCO3)N3CCc4ccccc43)c(=O)[nH]c2c1 (centres undefined)
2. Cc1cccc2nc(-c3cccc(-c4cccc(NC(=O)NCc5cccc(F)c5)c4)c3)[nH]c12
3. Cc1cc(CNCCCCCCCNCc2ccc(-c3ccccc3)cc2)ccc1O

## Output
1: 2.55; 2: 4.66; 3: 0.67

The molecule identified as Cc1cc(N2CCN(CC3CCN(C)CC3)CC2)nc(Nc2ccc(Cl)cc2)n1 registered its inhibition at 0.56

---

Biological target: Hexose transporter 1 (Plasmodium falciparum) (UniProt O97467)
Experiment: ST_JUDE_LEISH: Cytotoxicity at 2uM final concentration against transgenic Leishmania Mexicana promastigotes LmPfHT that are glucose transport deficient and complemented with the Plasmodium falciparum hexose transporter. Activity is measured by DNA content using SYBR green in vitro
Format: functional
Record Y whenever inhibition is at 9% or higher; record N when lower.

molecule	labelValue
C=CCc1cc(Br)ccc1OCCCOc1c(C)nc(N)nc1N	Y
Cc1cc(N2CCCC2)nc(Nc2ccc(NC(=O)CC(C)C)cc2)n1	N
Cc1ccc(Cc2c(C)nc3nc(N)nc(N)c3c2C)cc1	Y

Okay, next one:
## Input Does COc1cccc(CCc2nc3c(N4CCC(Cc5ccccc5)CC4)cccc3n2CC2CNCCO2)c1 (stereo not given) have a reported inhibition of at least 9%?
## Output Y

---

Molecular target: Hexose transporter 1 (Plasmodium falciparum)
Assay: ST_JUDE_LEISH: Cytotoxicity at 2uM final concentration against transgenic Leishmania Mexicana promastigotes LmPfHT that are glucose transport deficient and complemented with the Plasmodium falciparum hexose transporter. Activity is measured by DNA content using SYBR green in vitro
Type: functional
attributeMeasured: inhibition
Please answer using a numeric value trailed by its unit.

Worked set:
compound	inhibition
CCC(=C(CC)c1ccc(O)c(CNC2CCCCC2)c1)c1ccc(O)c(CNC2CCCCC2)c1	8.98%
NC(=O)c1cccc(CNC(=O)NC[C@H]2CN(Cc3ccc(Cl)c(Cl)c3)CCO2)c1	6.84%
COc1ccc2nccc([C@@H](O)CN3CCC(NC(=O)Cc4cccc5c(Br)cccc45)CC3)c2c1	9.54%
O=C(CNC(=O)c1ccc(O)cc1)Nc1cccc(-c2cccc(-c3nc4cc(C(F)(F)F)ccc4[nH]3)c2)c1	4.39%

Dear reader, for each entry below, please note its inhibition.
1. Nc1nc2c(cnn2CCCCCCCP(=O)(O)O)c(=O)[nH]1
2. O=C(Cc1ccccc1)NC1(c2ccccc2)CCN(CCc2c[nH]c3ccc(F)cc23)CC1
3. O=C(COc1ccccc1Cl)N1CCc2cc3nccc(N4CCN5CCC[C@H]5C4)c3cc21
4. COc1ccc2ncc(F)c(CCN3CC(O)C(CNCc4ccccc4)C3)c2n1 (centres undefined)
5. CN(C)CCCOc1cccc(CCNCc2cccc(Oc3ccc(Cl)cc3)c2)c1

## Output
["0.25%", "0.25%", "5.14%", "5.1%", "2.34%"]

---

Target: Glucose transporter (Leishmania mexicana)
Assay: ST_JUDE_LEISH: Cytotoxicity at 2uM final concentration against transgenic Leishmania Mexicana promastigotes LmGT2 that are glucose transport deficient and complemented with the L. Mexicana glucose transporter 2. Activity is measured by DNA content using SYBR green in vitro
Assay type: functional
attributeMeasured: inhibition (%)
Numbers only, in %.

Provide the reported inhibition of each entry below, same order.
1. CN(C)C(CNc1ncnc2cc(Cl)ccc12)Cc1ccccc1 (stereo not given)
2. C=CCOC(=O)N1CCC(CNCc2ccc(-c3ccc(-c4nc5ccccc5[nH]4)s3)cc2)C1 (stereo not given)

## Output
1: 3.65; 2: 5.42

Hi team, please reply with inhibition for each item in this list.
1. CC/N=C(/NCCCCCCN/C(=N/CC)NCc1ccccc1)NCc1ccccc1
2. O=C(Nc1ccc(-c2ccc(-c3nc4ccccc4[nH]3)s2)cc1)c1ccncc1

## Output
[-2.09, 5.66]

// each molecule listed below needs its inhibition
1. O=C(Nc1ccc(-c2nc3ccccc3[nH]2)cc1)c1ccc(S(=O)(=O)N2CCCCCC2)cc1
2. N#Cc1ccc(N2CCN(C(=O)c3cccc(-c4noc(C(F)(F)F)n4)c3)CC2)nc1
3. Clc1ccc(-c2cc(-c3csc(Nc4ccncc4)n3)on2)cc1

## Output
1: 1.91; 2: -0.23; 3: 1.32

---

Biological target: Solute carrier family 2, facilitated glucose transporter member 1 (Homo sapiens)
Assay: ST_JUDE_LEISH: Cytotoxicity at 2uM final concentration against transgenic Leishmania Mexicana promastigotes LmGLUT1 that are glucose transport deficient and complemented with the human glucose transporter GLUT1. Activity is measured by DNA content using SYBR green in vitro
Format: functional
attributeMeasured: inhibition

Examples with their reported inhibition follow.
moleculeSmiles	experimentalTarget	attributeMeasured	result
COc1ccc(-c2cc3ncnc(N4CCN(CCN5CCCC5)CC4)c3s2)cc1	Solute carrier family 2, facilitated glucose transporter member 1 (Homo sapiens)	inhibition	2.34%
Cc1ccc(O)cc1Nc1ccnc2ccc(C(C)(C)C)cc12	Solute carrier family 2, facilitated glucose transporter member 1 (Homo sapiens)	inhibition	-2.04%

Now let's try a different one.
Noted for c1ccc2[nH]c(CN(Cc3nc4ccccc4[nH]3)Cc3nc4ccccc4[nH]3)nc2c1 : its inhibition reads -2.76%

---

I'd appreciate it if you could supply inhibition values for the items below.
Biological target: Solute carrier family 2, facilitated glucose transporter member 1 (Homo sapiens) (UniProt P11166)
Assay: ST_JUDE_LEISH: Cytotoxicity at 2uM final concentration against transgenic Leishmania Mexicana promastigotes LmGLUT1 that are glucose transport deficient and complemented with the human glucose transporter GLUT1. Activity is measured by DNA content using SYBR green in vitro
Type: functional
One number for each entry, in %.

Below: 4 compounds and their reported inhibition.
compound	attributeMeasured	quantitativeReadout
O=C(Cc1cccc(Cl)c1)Nc1cccc(-c2c[nH]c3nc(Nc4cccc(O)c4)ncc23)c1	inhibition	0.33
O=C(/C=C/c1ccc(Cl)c(Cl)c1)NCCCCCN1CCC(c2c[nH]c3cc(O)ccc23)CC1	inhibition	9.77
Cc1cccc2nc(-c3ccc(-c4ccc(CNCc5cnn(-c6ccccc6)n5)cc4)cc3)[nH]c12	inhibition	1.08
COc1ccc(Nc2nc(NC3CCCC3)cc(-c3ccc(OC)cc3)n2)cc1	inhibition	-0.76

Look up inhibition for the entries below, preserving their order.
1. COc1ccc(NC(=O)Nc2ccc(-c3ccncc3)c(Cl)c2)cc1N1CCN(C)CC1
2. CCc1cn(CCc2ccccc2)c2ccc(C(=O)N[C@@H](Cc3ccccc3)[C@H](O)CNC(C)(C)CCCC(C)C)cc12
3. COc1cc(C=NNc2cc(C)nc3c(OC)cccc23)cc(OC)c1OC
4. CN1CCc2cc(Br)c(O)cc2C1Cc1ccccc1Cl (stereo not drawn)
5. O=C(Nc1cccc(-c2ccc(-c3nc4cc(C(F)(F)F)ccc4[nH]3)cc2)c1)c1c[nH]cn1
6. Cc1cc(NC(=O)Nc2ccc(Oc3ccccc3)cc2)c2ccccc2n1

## Output
-1.37
-1.76
7.21
-1.43
5.73
0.26

Please look at the items below and tell me inhibition for each one, in order.
1. Cc1cccc2nc(-c3ccc(-c4cccc(NC(=O)Nc5ccsc5)c4)cc3)[nH]c12
2. O=C(Nc1nccs1)c1cn(-c2ccccc2)nc1-c1ccc(Cl)s1
3. CCCc1cc(NC2CCN(C)CC2)nc(Nc2cccc(OC)c2)n1
4. Cc1ccoc1C(=O)Nc1cccc(-c2cccc(-c3nc4cccc(C)c4[nH]3)c2)c1
5. COc1ccc(-c2ccc(NC(=O)c3cccc(F)c3)cc2)cc1CNC(C)C

## Output
1.48
3.1
8.68
7.85
0.72

For every item in the list below, what is its measured inhibition?
1. FC(F)(F)COc1ccc2ccccc2c1CNCCCCCCNCc1c(OCC(F)(F)F)ccc2ccccc12
2. COc1ccc(Cl)cc1N1CCN(CCCNC(=O)c2ccc(-c3nc4cc(Cl)c(C)cc4[nH]3)s2)CC1
3. COc1cc(C)nc2ccc(NC(=O)Nc3ccc4nc(C)cc(OC)c4c3)cc12

## Output
[1.61, 4.06, 8.47]
